Assay: Acute vincristine toxicity in mice, with and without Cronassial
Assay type: in vivo, Male Swiss Schneider mice
Details: mouse, in vivo; acute, host SN; VCR 3.0 mg/kg iv day 1; in combination CRON 200 mg/kg ip day 1, 6hrs before VCR; read-out: SURVIVAL % at 30 d
outcome-measure: survival at 720 h

Look up survival at 720 h for this compound: CC[C@]1(O)C[C@H]2CN(CCc3c([nH]c4ccccc34)[C@@](C(=O)OC)(c3cc4c(cc3OC)N(C=O)[C@H]3[C@@](O)(C(=O)OC)[C@H](OC(C)=O)[C@]5(CC)C=CCN6CC[C@]43[C@@H]65)C2)C1 [VCR, vincristine]
25%

###

Assay: Chronic vincristine toxicity in mice, with and without Cronassial
Assay type: in vivo, Male Swiss Schneider mice
Conditions: mouse, in vivo, ip, 200 mg/kg, chronic, host SN; VCR 1.0 mg/kg ip days 1-4; in combination CRON 200 mg/kg ip days 1-4, 6hrs before VCR; read-out: SURVIVAL % at 30 d
outcome-measure: survival at 720 h (%)
Use % as the unit, but write only the number.

Look up survival at 720 h for this compound: CC[C@]1(O)C[C@H]2CN(CCc3c([nH]c4ccccc34)[C@@](C(=O)OC)(c3cc4c(cc3OC)N(C=O)[C@H]3[C@@](O)(C(=O)OC)[C@H](OC(C)=O)[C@]5(CC)C=CCN6CC[C@]43[C@@H]65)C2)C1 [VCR, vincristine]
37.5

###

Test: Chronic vincristine toxicity in mice, with and without Cronassial
Format: in vivo, Male Swiss Schneider mice
Settings: mouse, in vivo; cumulative dose of vincristine 5 mg/kg, mice
outcome-measure: mortality (%)
Use % as the unit, but write only the number.

Look up mortality for this molecule: CC[C@]1(O)C[C@H]2CN(CCc3c([nH]c4ccccc34)[C@@](C(=O)OC)(c3cc4c(cc3OC)N(C=O)[C@H]3[C@@](O)(C(=O)OC)[C@H](OC(C)=O)[C@]5(CC)C=CCN6CC[C@]43[C@@H]65)C2)C1
100
